B1: library; a variant is named by its letters at N, in order (parent)
chain: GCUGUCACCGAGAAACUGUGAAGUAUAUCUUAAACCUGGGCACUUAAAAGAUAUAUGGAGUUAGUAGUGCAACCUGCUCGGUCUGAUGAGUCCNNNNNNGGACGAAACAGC

Variants of: B1
Assay: FACS-Seq fitted mean relative fluorescence mCherry/BFP with ligand (log10 relative fluorescence); HEK293T; ligand: cyclic di-GMP (c-di-GMP-II aptamer); ligand concentration (+) FACS-Seq: 1 mM; higher = higher reporter protein expression
Settings: ligand present: yes
reported property: FACS-Seq fitted mean (log10)
Give bare numbers.

# annotated cases, reported FACS-Seq fitted mean (log10) shown
{"query sequence": "GCUGUCACCGAGAAACUGUGAAGUAUAUCUUAAACCUGGGCACUUAAAAGAUAUAUGGAGUUAGUAGUGCAACCUGCUCGGUCUGAUGAGUCCACGGGAGGACGAAACAGC [ACGGGA]", "FACS-Seq fitted mean (log10)": -0.161}
{"query sequence": "GCUGUCACCGAGAAACUGUGAAGUAUAUCUUAAACCUGGGCACUUAAAAGAUAUAUGGAGUUAGUAGUGCAACCUGCUCGGUCUGAUGAGUCCACUGAAGGACGAAACAGC [ACUGAA]", "FACS-Seq fitted mean (log10)": -0.161}
{"query sequence": "GCUGUCACCGAGAAACUGUGAAGUAUAUCUUAAACCUGGGCACUUAAAAGAUAUAUGGAGUUAGUAGUGCAACCUGCUCGGUCUGAUGAGUCCUAAGUAGGACGAAACAGC [UAAGUA]", "FACS-Seq fitted mean (log10)": -0.0651}

Report FACS-Seq fitted mean (log10) for every entry below.
1. GCUGUCACCGAGAAACUGUGAAGUAUAUCUUAAACCUGGGCACUUAAAAGAUAUAUGGAGUUAGUAGUGCAACCUGCUCGGUCUGAUGAGUCCCGGACGGGACGAAACAGC [CGGACG]
2. GCUGUCACCGAGAAACUGUGAAGUAUAUCUUAAACCUGGGCACUUAAAAGAUAUAUGGAGUUAGUAGUGCAACCUGCUCGGUCUGAUGAGUCCAAAAUGGGACGAAACAGC [AAAAUG]

Resp:
1: -1.17; 2: 0.319
